measured_on: DNA repair and recombination protein RAD54-like (Homo sapiens) (UniProt Q92698)
Sequence (Q92698 whole entry, looked up): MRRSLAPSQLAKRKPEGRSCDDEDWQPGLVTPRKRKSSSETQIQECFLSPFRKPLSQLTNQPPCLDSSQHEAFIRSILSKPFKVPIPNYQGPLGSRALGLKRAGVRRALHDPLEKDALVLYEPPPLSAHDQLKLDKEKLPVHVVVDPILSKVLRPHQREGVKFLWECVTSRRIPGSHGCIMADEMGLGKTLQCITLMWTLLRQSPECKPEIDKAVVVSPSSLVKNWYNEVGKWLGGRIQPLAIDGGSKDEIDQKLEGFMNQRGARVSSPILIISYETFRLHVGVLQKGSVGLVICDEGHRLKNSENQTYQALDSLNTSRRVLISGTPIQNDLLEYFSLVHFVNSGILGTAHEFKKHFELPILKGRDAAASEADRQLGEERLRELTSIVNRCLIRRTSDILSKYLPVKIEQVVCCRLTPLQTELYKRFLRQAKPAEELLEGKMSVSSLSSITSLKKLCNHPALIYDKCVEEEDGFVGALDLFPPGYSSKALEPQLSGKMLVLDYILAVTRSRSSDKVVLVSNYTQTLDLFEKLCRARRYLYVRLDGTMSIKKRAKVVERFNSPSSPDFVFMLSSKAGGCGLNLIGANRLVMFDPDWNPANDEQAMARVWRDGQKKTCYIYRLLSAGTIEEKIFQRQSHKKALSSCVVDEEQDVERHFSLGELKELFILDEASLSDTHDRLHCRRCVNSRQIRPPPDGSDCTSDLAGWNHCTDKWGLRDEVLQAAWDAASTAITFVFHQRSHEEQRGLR
protocol_text: RAD54 Holliday junction migration blockers – biochemical, fluorescence, cherry-picked samples, dose series, confirmation (AID 651657)
measurement_setup: RAD54 branch migration, FAM/BHQ fluorescence, 60 min; series mostly up to 50 µM
Entries with a potency or affinity are not part of this list. Active and inactive are the calls of the source.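 The calls were made as follows: active = signal falls, with fitted half-maximal concentration at most twice the top valid dose tested; inconclusive = flat curve with partial signal loss, or poor curve fit; inactive = the rest, including signal rising instead.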
test_readout: outcome

{"compound": "C=CCN1C(=O)C(C)(C)Nc2ccccc21", "reported_measurement": "inactive"}
{"compound": "Cc1cccc(Cn2c(Sc3nc(C)cs3)nc3c2c(=O)[nH]c(=O)n3C)c1", "reported_measurement": "inactive"}
{"compound": "Cn1nc(-c2ccccc2)cc1NS(=O)(=O)c1ccc(C#N)cc1", "reported_measurement": "inactive"}
{"compound": "COCCCNCCC(CCC(C)C)c1ccc2c(c1)OCO2 (stereo not drawn)", "reported_measurement": "inactive"}
{"compound": "NCCN1CCN(CCN)CC1", "reported_measurement": "inactive"}
{"compound": "Cc1ccc(C)c(N2CCN(C(=S)Nc3ccc4nc(N5CCN(C)CC5)cc(C)c4c3)CC2)c1", "reported_measurement": "inactive"}
{"compound": "Cc1nc2oc3c(=O)[nH]cnc3c2c2c1COC(C)(C)C2", "reported_measurement": "inactive"}
{"compound": "CN(C)CCCN(C(=O)CCOc1ccccc1)c1nc2ccc(F)cc2s1", "reported_measurement": "inactive"}
{"compound": "O=S(=O)(c1ccc(-c2nnc(SCc3ccccc3)o2)cc1)N1CCCC1", "reported_measurement": "inactive"}
{"compound": "O=C(Nc1nnc(COc2ccc(F)cc2)s1)c1ccco1", "reported_measurement": "inactive"}
{"compound": "COc1cc(NC(=O)c2cccnc2Sc2ccc(C)c(C)c2)cc(OC)c1OC", "reported_measurement": "inactive"}
{"compound": "NC(=O)C1CCN(c2nc(-c3cccnc3)cs2)CC1", "reported_measurement": "inactive"}
{"compound": "CCN1CCN(c2cc(C)c3cc(NC(=S)N4CCCC(C)C4)ccc3n2)CC1 (stereo not drawn)", "reported_measurement": "inactive"}
{"compound": "O=C1C(c2ccc(F)cc2)N(C2CCCCC2)C(=O)CN1C1CCCC1 (stereo not drawn)", "reported_measurement": "inactive"}
{"compound": "COc1ccccc1C1=NOC(Cn2c(NCCCO)nc3c2c(=O)n(C)c(=O)n3C)C1 (stereo not drawn)", "reported_measurement": "inactive"}
{"compound": "CCOC(=O)C1C(=O)NC(N2CCN(c3ccccc3)CC2)=NC1c1ccco1 (stereo not drawn)", "reported_measurement": "inactive"}
{"compound": "CN1CCN(CC(=O)Nc2nc(-c3c[nH]c4ccccc34)cs2)CC1", "reported_measurement": "inactive"}
{"compound": "CCC(=O)N(Cc1cc2cc(OC)ccc2[nH]c1=O)c1cc(C)ccc1C", "reported_measurement": "inactive"}
{"compound": "CC(C)CSc1ncc(-c2cccc(C(F)(F)F)c2)cn1", "reported_measurement": "inactive"}
{"compound": "O=C(CS(=O)(=O)c1ccccc1)Nc1ccc(Br)cn1", "reported_measurement": "inactive"}
{"compound": "O=C(Nc1ccc2c(c1)OCO2)c1cc(-c2ccncc2)nc2ccccc12", "reported_measurement": "inactive"}
{"compound": "c1ccc(-c2nnc(SCc3nc4ccccc4[nH]3)o2)cc1", "reported_measurement": "inactive"}
{"compound": "CCN(CC)S(=O)(=O)c1ccc(Cl)c(C(=O)Nc2nnc(C)s2)c1", "reported_measurement": "inactive"}
{"compound": "Cc1ccc(OCC(=O)Nc2cccc(-c3nnc(-c4ccccc4)o3)c2)c(C)c1", "reported_measurement": "inactive"}
{"compound": "COC(=O)Nc1nnc(COc2ccccc2)s1", "reported_measurement": "inactive"}
{"compound": "O=c1cc(CSc2n[nH]c(=O)n2C2CC2)c2ccc(O)cc2o1", "reported_measurement": "inactive"}
{"compound": "COc1ccc(N2C(=O)CSC23CCCCC3)cc1", "reported_measurement": "inactive"}
{"compound": "Cc1ccnc(Nc2nc(-c3sc(C)nc3C)cs2)c1", "reported_measurement": "inactive"}

The origin of these recorded values is PubChem BioAssay AID651657.
